IC50 values recorded for Lysine-specific histone demethylase 1A (Homo sapiens, UniProt O60341)

Incoming: GET IC50 where system = Lysine-specific histone demethylase 1A (Homo sapiens, UniProt O60341) and item = COc1cc(-c2nc(SCc3ccc(F)cc3)nc(NNC(N)=S)c2C#N)cc(OC)c1OC
Outgoing: > 125 µM

New cases:
Incoming: GET IC50 where system = Lysine-specific histone demethylase 1A (Homo sapiens, UniProt O60341) and item = C#CCSc1nc(Nc2ccc(OC)cc2)c(C#N)c(-c2cc(OC)c(OC)c(OC)c2)n1
Outgoing: > 125 µM

Incoming: GET IC50 where system = Lysine-specific histone demethylase 1A (Homo sapiens, UniProt O60341) and item = C#CCSc1nc(Nc2ccc([N+](=O)[O-])cc2)c(C#N)c(-c2ccccc2)n1
Outgoing: > 125 µM

----------
# protocol_summary: cells
# experimental_parameters: Homo sapiens, HGC-27, 72 h
# Description: Cytotoxicity against human HGC27 cells after 72 hrs by MTT assay
experimental_endpoint: pIC50
In plain terms, pIC50 is the concentration in mol/L turned into minus its base-10 logarithm.

Incoming: Write down pIC50 measured for item C#CCSc1nc(NNC(N)=S)c(C#N)c(-c2cc(OC)c(OC)c(OC)c2)n1
Outgoing: 5.05

----------
IC50 values recorded for Lysine-specific histone demethylase 1A (Homo sapiens, UniProt O60341)

Check out these entries, answers already filled in.
Incoming: GET IC50 where system = Lysine-specific histone demethylase 1A (Homo sapiens, UniProt O60341) and item = C#CCSc1nc(Cl)c(C#N)c(-c2ccc([N+](=O)[O-])cc2)n1
Outgoing: > 125 µM

Incoming: GET IC50 where system = Lysine-specific histone demethylase 1A (Homo sapiens, UniProt O60341) and item = C#CCSc1nc(Nc2ccc(F)cc2)c(C#N)c(-c2ccccc2)n1
Outgoing: > 125 µM

Incoming: GET IC50 where system = Lysine-specific histone demethylase 1A (Homo sapiens, UniProt O60341) and item = C#CCSc1nc(Nc2cccc(C(F)(F)F)c2)c(C#N)c(-c2ccccc2)n1
Outgoing: > 125 µM

New cases:
Incoming: GET IC50 where system = Lysine-specific histone demethylase 1A (Homo sapiens, UniProt O60341) and item = C#CCSc1nc(Nc2ccc(OC)cc2)c(C#N)c(-c2ccccc2)n1
Outgoing: > 125 µM

Incoming: GET IC50 where system = Lysine-specific histone demethylase 1A (Homo sapiens, UniProt O60341) and item = N#Cc1c(Cl)nc(SCc2cn(Cc3ccccc3Cl)nn2)nc1-c1ccc(Cl)cc1
Outgoing: > 125 µM

----------
Sequence of the target: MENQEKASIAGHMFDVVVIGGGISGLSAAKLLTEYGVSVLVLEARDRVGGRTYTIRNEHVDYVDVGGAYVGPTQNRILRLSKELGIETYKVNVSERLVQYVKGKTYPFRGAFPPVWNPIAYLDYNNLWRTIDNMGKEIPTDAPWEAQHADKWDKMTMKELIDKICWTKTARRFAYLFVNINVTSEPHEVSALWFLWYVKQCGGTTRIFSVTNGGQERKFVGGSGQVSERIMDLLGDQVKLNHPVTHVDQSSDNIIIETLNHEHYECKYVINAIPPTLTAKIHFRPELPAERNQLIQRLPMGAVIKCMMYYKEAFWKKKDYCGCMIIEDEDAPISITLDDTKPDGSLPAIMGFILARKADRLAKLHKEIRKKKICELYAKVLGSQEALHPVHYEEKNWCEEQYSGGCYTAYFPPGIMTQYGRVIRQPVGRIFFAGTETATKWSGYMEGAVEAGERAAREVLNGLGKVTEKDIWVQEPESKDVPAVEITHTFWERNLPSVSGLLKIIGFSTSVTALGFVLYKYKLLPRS
experimental_endpoint: IC50

Incoming: Write down IC50 measured for item C#CCSc1nc(NNC(N)=S)c(C#N)c(-c2cc(OC)c(OC)c(OC)c2)n1
Outgoing: > 1.25 mM

FYI, the data here is from ChEMBL document CHEMBL3414475.
